The following molecules have recorded pIC50 on α7-subtype of nicotinic receptors (Rattus norvegicus).
Sequence (Q05941 23-502): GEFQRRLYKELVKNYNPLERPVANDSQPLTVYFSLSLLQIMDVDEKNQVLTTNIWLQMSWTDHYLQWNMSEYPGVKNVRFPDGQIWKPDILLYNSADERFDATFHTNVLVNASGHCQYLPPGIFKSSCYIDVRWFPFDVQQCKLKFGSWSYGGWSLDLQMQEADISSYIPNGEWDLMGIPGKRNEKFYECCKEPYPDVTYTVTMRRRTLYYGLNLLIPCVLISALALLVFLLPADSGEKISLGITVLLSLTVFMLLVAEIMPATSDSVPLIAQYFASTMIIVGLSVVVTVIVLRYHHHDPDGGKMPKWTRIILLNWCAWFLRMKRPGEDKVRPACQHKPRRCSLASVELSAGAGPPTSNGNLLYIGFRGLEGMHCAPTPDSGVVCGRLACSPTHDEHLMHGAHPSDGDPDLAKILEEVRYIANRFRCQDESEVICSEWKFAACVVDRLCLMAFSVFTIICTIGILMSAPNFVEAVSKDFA
# log scale: pIC50 equals minus log10 of the concentration in mol/L

Using the record for C(#Cc1ccc(N2CCN3CCC2CC3)nn1)c1ccccc1 [Compound B1] , report its pIC50.
7.22

Give its pIC50 value. Item: C(#Cc1ccc(N2CCN3CCC2CC3)nn1)c1cccnc1 [Compound B5]
6.82

Which pIC50 reading was recorded for the molecule COc1ccc(C#Cc2ccc(N3CCN4CCC3CC4)nn2)cc1 [Compound B4] ?
6.74

Dear colleague, I am looking for the recorded pIC50 of the following molecule: c1ccc(Sc2ccc(N3CCN4CCC3CC4)nn2)cc1 [Compound C1]
6.22
